Value source: PubChem BioAssay

target: Pantothenate synthetase (Mycobacterium tuberculosis (strain ATCC 25618 / H37Rv)); experiment: Coupled enzyme confirmation of inhibitors against recombinant Mtb PanC (AID 375); settings: coupled enzyme assay; at 10 µM, hits give high values;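 also: 0% = full reaction with vehicle and 100% = no enzyme background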
Provide the reported inhibition of each item.
Report the figure in % without appending any unit label.

Prompt: Query inhibition on Pantothenate synthetase (Mycobacterium tuberculosis (strain ATCC 25618 / H37Rv)) for O=C(CCN1C(=O)C2C3C=CC(C3)C2C1=O)NC1CCCc2ccccc21 (stereo unspecified)
Completion: 1

Prompt: Again, but for Cc1nn(C(=O)c2ccoc2C)c(N)c1-c1ccccc1
Completion: 2

Prompt: Now this one: COc1ccccc1NC(=O)CSc1nnc(Cn2nnc(-c3ccccc3)n2)n1-c1ccccc1
Completion: 0

Prompt: Could you do the same for CCOc1ccc(NC(=O)CN(C)S(=O)(=O)c2cccs2)cc1 , please?
Completion: 13

Prompt: Repeat with N#Cc1c(-c2ccccc2)nc(SCc2nc(N)nc(N3CCCCC3)n2)[nH]c1=O
Completion: 9

Prompt: What do you have for O=C(NCCCN1CCN(c2cccc(Cl)c2)CC1)c1ccc(N2CCCC2=O)cc1 ?
Completion: 1

Prompt: // repeat for O=C(CSc1ncnc2c1oc1ccccc12)Nc1ccccc1C(F)(F)F and report
Completion: 0

Prompt: Also Cn1c(=O)[nH]c(=O)c2[nH]c(CN3CCN(C(=O)c4ccco4)CC3)nc21 , if possible.
Completion: 0

Prompt: What do you have for CCCCc1ccc(NC(=O)c2c(C)noc2C)cc1 ?
Completion: 8

Prompt: What do you get for CN(C)CCCN1c2ccccc2Sc2ccccc21 ?
Completion: 0

Prompt: Same lookup for COc1ccc2c(c1OC)C(=O)N(c1ccc3c(c1)CCC3)C2=O , please.
Completion: 2

###

molecular target: Pantothenate synthetase (Mycobacterium tuberculosis (strain ATCC 25618 / H37Rv)) (UniProt P9WIL5); assay: Coupled enzyme confirmation of inhibitors against recombinant Mtb PanC (AID 375); details: coupled enzyme assay; at 10 µM, hits give high values;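 also: 0% = full reaction with vehicle and 100% = no enzyme background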
Sequence (P9WIL5 whole entry, looked up): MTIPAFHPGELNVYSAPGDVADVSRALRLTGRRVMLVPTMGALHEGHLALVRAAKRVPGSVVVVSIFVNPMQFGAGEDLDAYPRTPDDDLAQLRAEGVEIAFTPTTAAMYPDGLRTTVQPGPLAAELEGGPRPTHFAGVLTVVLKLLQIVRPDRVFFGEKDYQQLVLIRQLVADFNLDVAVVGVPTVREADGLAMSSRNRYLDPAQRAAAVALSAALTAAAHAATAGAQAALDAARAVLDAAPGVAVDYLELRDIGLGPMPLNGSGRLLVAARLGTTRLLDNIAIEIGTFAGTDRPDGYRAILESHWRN
Active and inactive are the calls of the source. How the calls were made is not given here.
Would you mind telling me the reported inhibition of each entry?

Prompt: Quick one: inhibition of CCSc1nc(O)c(CC)c(=O)n1C(C)CC (stereo unspecified) ?
Completion: 3% (inactive)

Prompt: Please answer likewise for Cc1cccc(Cn2c(=O)n(Cc3ccco3)c(=O)c3ccccc32)c1
Completion: 0% (inactive)

Prompt: Moving on to the next compound: CCCc1c(OCCCCc2nn[nH]n2)ccc(C(C)=O)c1O
Completion: 0% (inactive)

Prompt: # iterate: CCC(=O)N1CCc2cc(OC)c(OC)cc2C1COc1ccc(C(=O)OC)cc1 (stereo unspecified)
Completion: 9% (inactive)

Prompt: Param item: Cc1cc2oc(=O)cc(CN3CCN(Cc4ccc5c(c4)OCO5)CC3)c2cc1C
Completion: 0% (inactive)

Prompt: What do you have for Cc1cccc2c1nc(-c1ccccc1)n1cnnc21 ?
Completion: 0% (inactive)

Prompt: Let us now turn to COCCNC(=O)c1cc2c(-c3ccccc3F)nn(C)c2s1
Completion: 8% (inactive)

Prompt: Would you mind doing C=C(CC)C(=O)c1ccc(OCC(=O)O)c(Cl)c1Cl as well?
Completion: 0% (inactive)

Prompt: Thanks! And CCN(CC)S(=O)(=O)N1CCC(C(=O)NC2CCCc3ccccc32)CC1 (stereo unspecified) ?
Completion: 0% (inactive)

Prompt: Request: Cc1ccc(SCCNS(=O)(=O)c2ccc(F)cc2)cc1
Completion: 1% (inactive)

Prompt: Next compound: O=C(O)COc1ccc(Oc2ccccc2)cc1
Completion: 3% (inactive)

Prompt: Param item: CCOC(=O)c1oc2ccccc2c1CSc1nnnn1-c1ccc(C)cc1
Completion: 1% (inactive)

Prompt: Now the same for COc1cccc(C(=O)Nc2cccc(C(=O)N3CCOCC3)c2)c1
Completion: 2% (inactive)

Prompt: Record: COC(=O)C1=C(CSCc2ccco2)NC(=O)NC1c1cc(C)ccc1C (stereo unspecified)
Completion: 3% (inactive)

Prompt: Moving on to Clc1cc2c(c(Cn3cnc4ccccc43)c1)OCOC2
Completion: 0% (inactive)

Prompt: Entry to check: CC(=O)Nc1ccc(OCC(O)Cn2nc(C)nc2C)cc1 (stereo unspecified)
Completion: 4% (inactive)

Prompt: And the next one, O=C(CSc1nnc(-c2ccccc2)o1)N1CCc2ccccc2C1 ?
Completion: 0% (inactive)

Prompt: Follow-up entry: Cc1ccc(-n2c3c(cc(C(=O)NCCCN4CCOCC4)c2=O)C(=O)CC(C)(C)C3)cc1
Completion: 0% (inactive)

Prompt: Likewise for CCCc1nn(CCc2ccccn2)c(N)c1CC ?
Completion: 6% (inactive)

Prompt: What about this compound? Cc1cc(C)c2c(N)c(C(=O)c3ccccc3)oc2n1
Completion: 0% (inactive)

Prompt: Can you handle CC(NC(=O)NCCCC(=O)O)(C(F)(F)F)C(F)(F)F next?
Completion: 0% (inactive)

Prompt: Same thing, different compound: CN1C(=O)C(O)(CC(=O)c2ccc3c(c2)OCO3)c2ccccc21 (stereo unspecified)
Completion: 0% (inactive)

Prompt: And what about the compound CCN(CC)c1ccc(/C=N/n2nnnc2N)c(O)c1 ?
Completion: 6% (inactive)

Prompt: Query Cc1cc2cc(CN(CCCN3CCOCC3)C(=O)NC3CCCCC3)c(=O)[nH]c2cc1C next
Completion: 2% (inactive)

Prompt: Now consider Cc1ccc2cc(C#N)c(NCCCNC(=O)C3CCCO3)nc2c1 (stereo unspecified) and answer again.
Completion: 0% (inactive)

Prompt: Repeat for the following compound: COc1ccc(N2CCN(C(=O)C(C)(C)Oc3ccc(Cl)cc3)CC2)cc1
Completion: 0% (inactive)

Prompt: // next record C=CCSc1nnc(-c2cccnc2)o1
Completion: 0% (inactive)

Prompt: Item: CCSc1nc2c(c(=O)[nH]1)C(c1cccnc1)C(C(=O)OC(C)C)=C(C)N2 (stereo unspecified)
Completion: 0% (inactive)

Prompt: Same read-out for Oc1c(Cl)cc(Cl)c2c1NCCC2 ?
Completion: 1% (inactive)

Prompt: Also, Cc1c2ccncc2c(C)c2c1[nH]c1ccccc12 please.
Completion: 0% (inactive)

Prompt: For COc1ccc(NC(=O)CN(c2ccc(C(C)C)cc2)S(=O)(=O)c2c(C)noc2C)cc1OC then?
Completion: 0% (inactive)

Prompt: Okay, and Cc1ccccc1-n1c(Cn2c(=O)sc3ccccc32)nnc1SCC(=O)N1CCCC1 ?
Completion: 8% (inactive)

Prompt: Item: CC(C)N(C(=O)N1CCC(c2nc(-c3ccncc3)no2)CC1)C(C)C
Completion: 0% (inactive)

Prompt: And what about the compound CC1=C(C(=O)OC(C)C)[C@]2(C(=O)N(CC(N)=O)c3ccccc32)C(C#N)=C(N)O1 ?
Completion: 3% (inactive)

Prompt: Would you mind doing Cn1c(=O)c2c(nc(NCC3CCCO3)n2C)n(C)c1=O (stereo unspecified) as well?
Completion: 0% (inactive)

Prompt: Param item: CCOC(=O)c1cnc(-n2nc(C)cc2C)nc1Nc1cccc(C(C)=O)c1
Completion: 0% (inactive)

Prompt: Same again, this time with c1ccc(Cn2nnnc2CN2CCCC2)cc1
Completion: 0% (inactive)

Prompt: Request: COc1ccc(-n2ncc3c(NCCCN4CCOCC4)ncnc32)cc1
Completion: 6% (inactive)

Prompt: Proceed to COc1ccc(N(C(=O)c2ccco2)C(C(=O)NC2CCCC2)c2ccc(N(C)C)cc2)cc1OC (stereo unspecified)
Completion: 1% (inactive)

Prompt: // next record Cn1c(Cl)cnc1C1CC(=O)c2cc(Cl)ccc2O1 (stereo unspecified)
Completion: 7% (inactive)

Prompt: And the next one, CC12CN3CC(C)(CN(C1)C3c1ccc(Br)cc1)C2 (stereo unspecified) ?
Completion: 0% (inactive)

Prompt: Also Fc1ccc(-c2nnc(CN3CCN(c4ncc(C(F)(F)F)cc4Cl)CC3)o2)cc1 ?
Completion: 0% (inactive)

Prompt: Continue with CCOc1ccc(N(C(C)=O)C2C=CS(=O)(=O)C2)cc1 (stereo unspecified)
Completion: 0% (inactive)

Prompt: Moving on to Cc1nc2c(-c3ccccc3)c(C)nn2c(C)c1CCC(=O)NCc1ccco1
Completion: 2% (inactive)

Prompt: Then this compound: Nc1cc(C(=O)O)ccc1Nc1ccccc1
Completion: 0% (inactive)

Prompt: Now give it for Nc1nc(CN2CCN(Cc3ccc4c(c3)OCO4)CC2)nc(Nc2ccccc2)n1 too.
Completion: 0% (inactive)
